- System: MDA-MB-231 breast
- assayComment: NCI-60 one-dose screen, 48 h (100 = growth as untreated, 0 = no growth, -100 = all killed)
- conditionDetails: 10 µM
Compounds without any hit were thinned out: in the full panel of roughly 83,000, 20% have a hit.
observedProperty: growth (%)
Provide only the numeric value, understood in %.

Field: example entries. Status: answers known.
compound	observedProperty	experimentalValue
CCCCN(CCCC)c1ccc(C(=NC(C)CCCN(CC)CC)c2ccc(N(C)C)cc2)cc1 (stereo not given)	growth	-79.4
O=C(c1ccc(Cl)cc1)c1no[n+]([O-])c1C(=O)c1ccc(Cl)cc1	growth	124
COc1cc(C2=Nc3c/c(=C\c4c(O)[nH]c5ccc(Cl)cc45)ccc3=N2)cc(OC)c1OC	growth	2.35
C=CCOc1ccc2c(c1)CC=C1[C@@H]2CC[C@]2(C)C(=O)/C(=N/O)C[C@@H]12	growth	90.2
Cn1cnc([N+](=O)[O-])c1/C=C1\Oc2ccc(Cl)cc2C1=O	growth	86.7

Ask | Find the recorded growth belonging to c1ccc(OCCC[P+](c2ccccc2)(c2ccccc2)c2ccccc2)cc1 and report it.
Reply | 11.9

Ask | Now give it for CCOC(=O)C1=C(Nc2ccc(OC)cc2)C(N)=NC1=N too.
Reply | 67.5

Ask | Now give it for Cc1cc2cc3c(=O)[nH]c(=O)cc-3n(CC(O)C(O)C(O)CO)c2cc1C (stereo not given) too.
Reply | 109

Ask | Now give it for Cc1ccc(C2C=C(c3ccc(Cl)cc3)N=C3SC=CN32)c(Br)c1 (stereo not given) too.
Reply | 90

Ask | Now give it for CC1(C)Cc2c(cn(Cc3ccccc3)c2-c2ccccc2)-c2oncc21 too.
Reply | 104

Ask | Now give it for CCCn1c(=O)c2c(nc(-c3cccc(OCCCCl)c3)n2C)n(CCC)c1=O too.
Reply | 36.2

Ask | Now give it for COc1ccc2oc(=O)cc(C3c4ccc([nH]4)C(c4cc(=O)oc5ccc(OC)cc45)c4ccc([nH]4)C(c4cc(=O)oc5ccc(OC)cc45)c4ccc([nH]4)C(c4cc(=O)oc5ccc(OC)cc45)c4ccc3[nH]4)c2c1 (stereo not given) too.
Reply | -16.5

Ask | Now give it for CCCCCC(CCC)COC(=O)c1ccc(OC)cc1 (stereo not given) too.
Reply | 109

Ask | Now give it for COc1cc(CSc2nc3ccc(C)cc3c(=O)n2-c2ccccc2)cc(OC)c1OC too.
Reply | 38

Ask | Now give it for COc1ccc(-c2cc(/C=C3\C(=O)Nc4cc(Cl)ccc43)[nH]n2)cc1 too.
Reply | 54.5

----------
- Tested on: CCRF-CEM leukemia
- assayComment: NCI-60 one-dose screen, 48 h
- conditionDetails: 10 µM
Compounds without any hit were thinned out: in the full panel of roughly 83,000, 20% have a hit. Active and inactive are the calls of the source. Rule for the calls: active = growth percent below 10; inactive = the rest.
I would appreciate it if you answered using one of these outcomes: active, inactive

# count of solved cases: 2
> print(dat)
                                   compound  grouplabel
1  C=CCc1cc(Nc2c3ccc(Cl)cc3nc3ccc(OC)cc23)cc(CN(CC)CC)c1O      active
2    CCN(Cc1ccccc1)C1CCN(Cc2cc(Br)ccc2O)CC1    inactive

Attention now turns to another entry.
Ask | Hi, sorry to bother you, what did the test record for COc1ccc2nc(NC(=O)Nc3c(F)cccc3F)sc2c1 ?
Reply | inactive

----------
- Tested on: OVCAR-3 ovarian
- assayComment: NCI-60 one-dose screen, 48 h
- conditionDetails: 10 µM
About 83,000 compounds went through this panel and 20% of them were active in at least one assay; those are over-represented in the sample as a whole. Activity calls are given as the source filed them. Rule for the calls: active = growth percent below 10; inactive = the rest.
I would appreciate it if you answered using one of these outcomes: active, inactive

# count of solved cases: 5
> print(dat)
                                   molecule              tgt  grouplabel
1  Oc1ccccc1-c1nnc(Cn2c(Cc3cccc4ccccc34)nc3ccccc32)o1  OVCAR-3 ovarian    inactive
2        CCCc1ccnc(NS(=O)(=O)c2ccc(N)cc2)n1  OVCAR-3 ovarian    inactive
3      O=C(O)c1ccc(CNc2ccc(C(=O)CCl)cc2)cc1  OVCAR-3 ovarian    inactive
4  CC1(CO)CCCC12OCCO2 (configuration not stated)  OVCAR-3 ovarian    inactive
5  OC(CNC1CCCC1)Cn1c2ccccc2c2ccccc21 (configuration not stated)  OVCAR-3 ovarian    inactive

Ask | Hi, sorry to bother you, what did the test record for Oc1ccc(/C=N\Nc2ccccn2)c(O)c1 ?
Reply | active

Ask | Now give it for O=C(NNC(=O)c1ccncc1)Nc1ccc([N+](=O)[O-])cc1 too.
Reply | inactive

Ask | Now give it for CCn1nc(-c2ccccn2)c2cccnc2c1=S too.
Reply | inactive

Ask | Now give it for COc1ccc(C(=O)/C=C/c2cc(-c3ccc4c(c3)OCO4)n[nH]2)cc1OC too.
Reply | inactive

Ask | Now give it for CCN(CC)CCn1c(=N)n(CC(O)c2ccc(Cl)c(Cl)c2)c2ccccc21 (configuration not stated) too.
Reply | inactive

Ask | Now give it for COc1c(-c2c3sc(=O)[nH]c3nc3c2c(=O)[nH]n3C(C)C)cc2c(c1OC)OCO2 too.
Reply | inactive

Ask | Now give it for O=C(/C=C/c1nnc2n(Cc3ccccc3)c(=O)c3c4c(sc3n12)CCCC4)c1ccccc1 too.
Reply | inactive

Ask | Now give it for COc1cc(OC)cc(-c2ccc(-c3ccc(C(=N)N)cn3)o2)c1 too.
Reply | inactive

Ask | Now give it for Fc1ccc(-c2cc(C(Cl)Cl)no2)cc1 too.
Reply | inactive

Ask | Now give it for Cc1cc(C)c2nc(C)c(C)[n+]([O-])c2c1 too.
Reply | inactive

Ask | Now give it for O=[N+]([O-])c1ccc(S(=O)(=O)OCCCCOS(=O)(=O)c2ccc([N+](=O)[O-])cc2)cc1 too.
Reply | inactive

----------
- System: MDA-MB-231 breast
- assayComment: NCI-60 one-dose screen, 48 h (100 = growth as untreated, 0 = no growth, -100 = all killed)
- conditionDetails: 10 µM
The panel holds about 83,000 compounds, 20% with a hit somewhere; the sample as a whole holds those more often.
Rule: growth under 30% gives NO, otherwise YES.

> print(dat)
                                   compound  grouplabel
1             C/C(=N\NC(=S)N1CCCC1)c1ccccn1          NO
2                      COCc1cc2c(cc1Br)OCO2         YES
3      N=C(N)c1ccc(-c2ccc(-c3ccccc3)s2)cc1F          NO
4          CCOC(=O)c1ccc(NC(=O)Nc2nncs2)cc1          NO
5  COc1ccc(-c2nsc3c2NC(=O)CC3c2ccc(Cl)cc2)cc1 (stereo unspecified)         YES

Ask | For this compound, is measured growth 30% or higher? O=C(COc1ccc(-c2nc3ccccc3[nH]2)cc1)N=Nc1c(O)[nH]c2ccccc12
Reply | YES

Ask | Now give it for CCCCn1c(=O)[nH]c(N)c(C(c2ccc(Cl)cc2)c2c(N)[nH]c(=O)n(CCCC)c2=O)c1=O too.
Reply | YES

Ask | Now give it for COc1ccc(C2C=C(c3ccc(OC)c(OC)c3)N=C3SC=CN32)c(Br)c1 (stereo unspecified) too.
Reply | YES

Ask | Now give it for O=C(O)c1cc(C(F)(F)F)cc(C(F)(F)F)c1 too.
Reply | YES

Ask | Now give it for COc1cc(OC)cc(N2CCN(C(=O)Nc3nc4cc(F)ccc4nc3OC)CC2)c1 too.
Reply | NO

Ask | Now give it for CC1(C)CC(OCCCC[P+](c2ccccc2)(c2ccccc2)c2ccccc2)CC(C)(C)N1O too.
Reply | NO

----------
- Tested on: NCI-H460 lung
- assayComment: NCI-60 one-dose screen, 48 h (100 = growth as untreated, 0 = no growth, -100 = all killed)
- conditionDetails: 10 µM
- Method: Growth inhibition of the NCI-H460 human Non-Small Cell Lung tumor cell line is measured as a screen for anti-cancer activity. Cells are grown in 96 well plates and exposed to the test compound for 48 hours. Compounds are tested at a single concentration, which is 10^-5 M for most compounds. The reported endpoint is percent growth (GI% or GIPRCNT), where numbers from 0 - 100% represent growth inhibition, and numbers from -100% - 0 represent cell death. […]
The panel holds about 83,000 compounds, 20% with a hit somewhere; the sample as a whole holds those more often.
observedProperty: growth (%)
Provide only the numeric value, understood in %.

> print(dat)
                                   molecule            tgt  experimentalvalue
1  CC1=CC2OC34COC3CC(OC(=O)C(F)(F)F)C4(C)C2(C)CC1 (stereo not drawn)  NCI-H460 lung                104
2  CCCCOCC(=O)NC(NP(=O)(N(C)C)N(C)C)C(Cl)(Cl)Cl (stereo not drawn)  NCI-H460 lung                110
3  CCOC(=O)c1cc2c(n1Cc1cccc(OC)c1)-c1oncc1CC2  NCI-H460 lung                 10

Ask | Find the recorded growth belonging to COC(=O)c1cnc2c(c1)Oc1ccccc1-c1ccnn1-2 and report it.
Reply | 104
